tested on: Hsp90 complexes in K562 cell extract; assay: Nano-LC-MS/MS of PU-beads pull-downs; type: binding; conditions: protein identified in PU-beads pull-down of K562 cell extract, Prep 2; QSTAR-Elite QTof MS
Examples of molecules with documented Number of Assigned Spectra, K562 Prep 2 follow.
Lab note: jot the number down without any unit.

Previously resolved entries follow.
The molecule DIABLO (protein, UniProt Q9NR28 22-239, looked up) Diablo IAP-binding …: LCVPVVANFKKRCFSELIRPWHKTVTIGFGVTLCAVPIAQKSEPHSLSSEALMRRAVSLVTDSTSTFLSQTTYALIEAITEYTKAVYTLTSLYRQYTSLLGKMNSEEEDEVWQVIIGARAEMTSKHQEYLKLETTWMTAVGLSEMAAEAAYQTGADQASITARNHIQLVKLQVEEVHQLSRKAETKLAEAQIEELRQKTQEEGEERAESEQEAYLRED showed Number of Assigned Spectra, K562 Prep 2 equal to 0

// sample PTPLAD1 (protein, UniProt Q9P035 1-362, looked up) Very-long-chain …: MENQVLTPHVYWAQRHRELYLRVELSDVQNPAISITENVLHFKAQGHGAKGDNVYEFHLEFLDLVKPEPVYKLTQRQVNITVQKKVSQWWERLTKQEKRPLFLAPDFDRWLDESDAEMELRAKEEERLNKLRLESEGSPETLTNLRKGYLFMYNLVQFLGFSWIFVNLTVRFCILGKESFYDTFHTVADMMYFCQMLAVVETINAAIGVTTSPVLPSLIQLLGRNFILFIIFGTMEEMQNKAVVFFVFYLWSAIEIFRYSFYMLTCIDMDWKVLTWLRYTLWIPLYPLGCLAEAVSVIQSIPIFNETGRFSFTLPYPVKIKVRFSFFLQIYLIMIFLGLYINFRHLYKQRRRRYGQKKKKIH , its Number of Assigned Spectra, K562 Prep 2 was 0

Lab note: next molecule to report on.
get_value(item= AIP (protein, UniProt O00170 1-330, looked up) AH receptor-interacting …: MADIIARLREDGIQKRVIQEGRGELPDFQDGTKATFHYRTLHSDDEGTVLDDSRARGKPMELIIGKKFKLPVWETIVCTMREGEIAQFLCDIKHVVLYPLVAKSLRNIAVGKDPLEGQRHCCGVAQMREHSSLGHADLDALQQNPQPLIFHMEMLKVESPGTYQQDPWAMTDEEKAKAVPLIHQEGNRLYREGHVKEAAAKYYDAIACLKNLQMKEQPGSPEWIQLDQQITPLLLNYCQCKLVVEEYYEVLDHCSSILNKYDDNVKAYFKRGKAHAAVWNAQEAQADFAKVLELDPALAPVVSRELRALEARIRQKDEEDKARFRGIFSH , readout=Number of Assigned Spectra, K562 Prep 2) returns 0
